- Tested on: OC43
- experiment: Antiviral activity against OC43 (Huh 7.5 IFITM3)
- Assay type: cell-based, human coronavirus
- condition-summary: Betacoronavirus 1, OC43, Huh7.5
observable: EC50
Note: state the figure and append the unit.

Recorded EC50 for CC(C)OC(=O)[C@H](C)N[P@@](=O)(Oc1ccccc1)OC1[C@@H](CO[P@@](=O)(N[C@@H](C)C(=O)OC(C)C)Oc2ccccc2)O[C@@H](n2cnc3sc4c(N)nc(N)nc4c32)C1(C)F (stereo partly shown) on OC43 was 1.5 µM

====

- experiment: Cytotoxicity (CC50) alongside SARS-CoV-2 (A549-hACE2) assay
- condition-summary: human, A549-hACE2 cells
observable: CC50

Looking up CC(C)OC(=O)[C@H](C)N[P@@](=O)(Oc1ccccc1)OC1[C@@H](CO[P@@](=O)(N[C@@H](C)C(=O)OC(C)C)Oc2ccccc2)O[C@@H](n2cnc3sc4c(N)nc(N)nc4c32)C1(C)F (stereo partly shown) [CEM-042] , I see its CC50 listed as > 100 µM

====

- Test system: DENV4
- experiment: Antiviral activity against DENV4
- Type: cell-based
- condition-summary: Dengue Virus 4
pIC50: −log10 of the molar value.
Cut-off 5 on pIC50, inclusive. At or above means yes (1); below means no (0).

Field: example entries. Status: answers known.
{"compound": "Nc1nc(N)c2sc3ncn([C@@H]4O[C@H](CO)C(O)C4O)c3c2n1 (stereo partly shown)", "group": "no (0)"}
{"compound": "CCC(CC)COC(=O)[C@H](C)N[P@](=O)(OC[C@H]1O[C@@H](n2cnc3sc4c(N)nc(N)nc4c32)C(C)(F)C1O)Oc1ccccc1 (stereo partly shown)", "group": "no (0)"}
{"compound": "COc1nc(OC)c2sc3ncn([C@@H]4O[C@H](CO[P@@](=O)(N[C@@H](C)C(=O)OC(C)C)Oc5ccccc5)C(O)C4O)c3c2n1 (stereo partly shown)", "group": "no (0)"}

Is the recorded value of pIC50 equal to or greater than 5 for this compound? CCC(CC)COC(=O)[C@H](C)N[P@@](=O)(Oc1ccccc1)OC1[C@@H](CO[P@@](=O)(N[C@@H](C)C(=O)OCC(CC)CC)Oc2ccccc2)O[C@@H](n2cnc3sc4c(N)nc(N)nc4c32)C1(C)F (stereo partly shown)
yes (1)

Is the recorded value of pIC50 equal to or greater than 5 for this compound? Nc1nc2c(sc3ncn([C@@H]4O[C@H](CO)C(O)C4O)c32)c(=O)[nH]1 (stereo partly shown)
no (0)

====

- System: SARS-CoV-2 (WA-1)
- experiment: microbe, parasite or virus in culture
- Type: cell-based
- condition-summary: Severe acute respiratory syndrome coronavirus 2, A549, read-out: IC50, SARS-CoV-2 (WA-1) #1
# key: entry, value: IC50
Give the quantity in µM, number only.

{"molecule": "COc1nc(OC)c2sc3ncn([C@@H]4O[C@H](CO[P@@](=O)(N[C@@H](C)C(=O)OC(C)C)Oc5ccccc5)C(O)C4O)c3c2n1 (some centres unmarked) [CEM-036]", "observable": "IC50", "measurement-units": "µM", "readout-number": 21.6}

API: the following record is the query input.
Looking up CC(C)OC(=O)[C@H](C)N[P@@](=O)(Oc1ccccc1)OC1[C@@H](CO[P@@](=O)(N[C@@H](C)C(=O)OC(C)C)Oc2ccccc2)O[C@@H](n2cnc3sc4c(N)nc(N)nc4c32)C1(C)F (some centres unmarked) [CEM-042] , I see its IC50 listed as 3.58

====

# key: entry, value: CC50
- experiment: in vitro

{"molecule": "CC(C)OC(=O)[C@H](C)N[P@@](=O)(Oc1ccccc1)OC1[C@@H](CO[P@@](=O)(N[C@@H](C)C(=O)OC(C)C)Oc2ccccc2)O[C@@H](n2cnc3sc4c(N)nc(N)nc4c32)C1(C)F (some centres unmarked)", "CC50": "> 100 µM"}

Looking up CC(C)OC(=O)[C@H](C)N[P@](=O)(OC[C@H]1O[C@@H](n2cnc3sc4c(=O)[nH]cnc4c32)C(O)C1O)Oc1ccccc1 (stereo in doubt) , I see its CC50 listed as > 100 µM

====

# key: entry, value: CC50
- experiment: Cytotoxicity (CC50) alongside DENV4 assay
Give the quantity in µM, number only.

{"molecule": "CCC(CC)COC(=O)[C@H](C)N[P@](=O)(OC[C@H]1O[C@@H](n2cnc3sc4c(N)nc(N)nc4c32)C(C)(F)C1O)Oc1ccccc1 (stereo partly shown) [CEM-052]", "measurement-units": "µM", "CC50": 33}

API: the following record is the query input.
Looking up CC(C)OC(=O)[C@H](C)N[P@](=O)(OC[C@H]1O[C@@H](n2cnc3sc4c(N)nc(N)nc4c32)C(C)(F)C1OC(=O)C(C)C)Oc1ccccc1 (stereo partly shown) [CEM-054] , I see its CC50 listed as 32

====

# key: entry, value: CC50
- experiment: Cytotoxicity (CC50) alongside SARS-CoV-2 WA-1 assay, lab #1
- condition-summary: human, A549 cells

{"compound": "CC(C)OC(=O)[C@H](C)N[P@@](=O)(Oc1ccccc1)OC1[C@@H](CO[P@@](=O)(N[C@@H](C)C(=O)OC(C)C)Oc2ccccc2)O[C@@H](n2cnc3sc4c(N)nc(N)nc4c32)C1(C)F (some centres unmarked) [CEM-042]", "CC50": "> 100 µM"}

Looking up COc1nc(OC)c2sc3ncn([C@@H]4O[C@H](CO[P@@](=O)(N[C@@H](C)C(=O)OC(C)C)Oc5ccccc5)C(O)C4O)c3c2n1 (some centres unmarked) [CEM-036] , I see its CC50 listed as > 100 µM

====

# key: entry, value: CC50
- experiment: in vitro
- condition-summary: human
Give the quantity in µM, number only.

{"molecule": "COc1nc(OC)c2sc3ncn([C@@H]4O[C@H](CO)C(O)C4O)c3c2n1 (some centres unmarked)", "observable": "CC50", "readout-number": 138}
{"molecule": "CC(C)OC(=O)[C@H](C)N[P@](=O)(OC[C@H]1O[C@@H](n2cnc3sc4c(N)ncnc4c32)C(O)C1O)Oc1ccccc1 (some centres unmarked)", "observable": "CC50", "readout-number": 17.7}
{"molecule": "CC1(F)C(O)[C@@H](CO)O[C@H]1n1cnc2sc3c(N)nc(N)nc3c21 (stereo in doubt)", "observable": "CC50", "readout-number": 11}

API: the following record is the query input.
Looking up Nc1nc2c(sc3ncn([C@@H]4O[C@H](CO)C(O)C4O)c32)c(=O)[nH]1 (some centres unmarked) , I see its CC50 listed as 60.5

====

- System: VEEV
- experiment: microbe, parasite or virus in culture
- Format: cell-based
- condition-summary: Venezuelan equine encephalitis virus, read-out: EC50, VEEV
observable: pEC50
Note on units: pEC50 is unitless, being -log10 of a concentration expressed in mol/L.

Looking up CC(C)OC(=O)[C@H](C)N[P@@](=O)(Oc1ccccc1)OC1[C@@H](CO[P@@](=O)(N[C@@H](C)C(=O)OC(C)C)Oc2ccccc2)O[C@@H](n2cnc3sc4c(N)nc(N)nc4c32)C1(C)F (stereo partly shown) , I see its pEC50 listed as 4.06
